Exercise: for every item that follows, state its recorded protein stability index.
system: Saccharomyces cerevisiae; assay: protein stability index of tFT-peptide fusion (C-terminal peptide) (PSI (0-1 scale)); higher = more stable (slower turnover); details: genetic background: wild type; temperature: 30 C;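 note: PSI is a weighted mean of sequencing reads over stability bins, variants kept only with over 10 reads, mCherry proximal and sfGFP distal, peptide attached via GGGS linker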
# answer = number (no unit)

Reading of protein stability index for RFPSRLLVPPPP with Saccharomyces cerevisiae: 0.698

Reading of protein stability index for CRRCQRNRVLDG with Saccharomyces cerevisiae: 0.673

Reading of protein stability index for YSSGKPMEITIA with Saccharomyces cerevisiae: 0.678

Reading of protein stability index for GGRGSAWRWRRG with Saccharomyces cerevisiae: 0.674

Reading of protein stability index for RHLFGTGIMPER with Saccharomyces cerevisiae: 0.683

Reading of protein stability index for GCLRLCYQHWSP with Saccharomyces cerevisiae: 0.676

Reading of protein stability index for LLGRGVSLFRCG with Saccharomyces cerevisiae: 0.643

Reading of protein stability index for IAEWVRLIVGEG with Saccharomyces cerevisiae: 0.671

Reading of protein stability index for HLPSPLPSPSFH with Saccharomyces cerevisiae: 0.606

Reading of protein stability index for AMSSVRCRLWPM with Saccharomyces cerevisiae: 0.761

Reading of protein stability index for ESQYAIFGHDIW with Saccharomyces cerevisiae: 0.709

Reading of protein stability index for PLLPSPPLPCFF with Saccharomyces cerevisiae: 0.765

Reading of protein stability index for WCQREPSSKYKI with Saccharomyces cerevisiae: 0.578

Reading of protein stability index for EVGVRCRVGVWV with Saccharomyces cerevisiae: 0.567

Reading of protein stability index for FPSLLFALFLFI with Saccharomyces cerevisiae: 0.475

Reading of protein stability index for PTAGFFGLLVLV with Saccharomyces cerevisiae: 0.397

Reading of protein stability index for PRSPPPPSPPPY with Saccharomyces cerevisiae: 0.583

Reading of protein stability index for YTWHKLFFAYAI with Saccharomyces cerevisiae: 0.528

Reading of protein stability index for KKAKEETSTPDC with Saccharomyces cerevisiae: 0.67
